Kindly supply the reported binding signal values for the records listed here.
- targetEntity: OsWOX13 (Oryza sativa, UniProt Q5QMM3 1-267)
- Sequence: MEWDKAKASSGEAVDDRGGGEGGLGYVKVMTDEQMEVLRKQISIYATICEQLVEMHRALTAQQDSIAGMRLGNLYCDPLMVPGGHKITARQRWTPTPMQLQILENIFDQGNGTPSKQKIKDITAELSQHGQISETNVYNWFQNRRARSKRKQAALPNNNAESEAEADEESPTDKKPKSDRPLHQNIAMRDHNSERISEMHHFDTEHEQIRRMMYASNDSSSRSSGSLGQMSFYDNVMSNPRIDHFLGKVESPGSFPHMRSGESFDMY
- assayRemarks: protein-binding microarray (RPBM); PBS, 2% BSA, 51.3 ng/ul salmon testes DNA, 50 uM zinc acetate, 200 nM TF, 25 C, 1 h; high values mean tight binding
- conditionSummary: protein: recombinant; tags: N-terminal polyhistidine and DsRed monomer fusion (pET32a); label: CyDye5-dUTP incorporated in the synthesized complementary strand; 3' TTTTT single-stranded linker to array surface; dsDNA, one strand shown
Whole data set: some 35,000 sequences, median “fluorescence intensity (a.u.)” near 10,000, cut for the highest 2% near 52,000. This is one part of a sample in which the highest values are shown more often than they occur.

stdin: Please report the recorded binding signal for `ATAAAGACTGTTCAATCATGATGAAGCTTTACGTAAGCGGCGGAGTCACCTAGTGCAG` .
stdout: 34900 fluorescence intensity (a.u.)

stdin: Please report the recorded binding signal for `TAATAGATAGATAGATAGATAGATAGATTAGTAATTTAGACGGAGTCACCTAGTGCAG` .
stdout: 30600 fluorescence intensity (a.u.)

stdin: Please report the recorded binding signal for `TGATTAAAATTGACATTAAAATTATAGTTTTGTGATGACTCGGAGTCACCTAGTGCAG` .
stdout: 19100 fluorescence intensity (a.u.)

stdin: Please report the recorded binding signal for `GATTTAAATTAGATGGAAGGTTGAGAATTAAGCTGATCCTCGGAGTCACCTAGTGCAG` .
stdout: 13600 fluorescence intensity (a.u.)

stdin: Please report the recorded binding signal for `GAGAGAGAGATCAGCACATGATTGATTAAATATTAGCTTACGGAGTCACCTAGTGCAG` .
stdout: 19100 fluorescence intensity (a.u.)

stdin: Please report the recorded binding signal for `TAGATAGATTTAGTTTTGATAATGGATAGAGATATTGCCCCGGAGTCACCTAGTGCAG` .
stdout: 11600 fluorescence intensity (a.u.)

stdin: Please report the recorded binding signal for `TATTAGATTGGCTATAGATGAATTGGAGCTAGTAGTTGGCCGGAGTCACCTAGTGCAG` .
stdout: 46700 fluorescence intensity (a.u.)

stdin: Please report the recorded binding signal for `TTCGAAAATTACCTGTAACCTTCCATCCATCACACACACACGGAGTCACCTAGTGCAG` .
stdout: 3500 fluorescence intensity (a.u.)

stdin: Please report the recorded binding signal for `CTTAACAACTGAACTGATTGAGACAGTAGATGAAATGGAACGGAGTCACCTAGTGCAG` .
stdout: 21400 fluorescence intensity (a.u.)

stdin: Please report the recorded binding signal for `TTATATTAATTGATGGTCATTATTGTTGGAGATTATATTGCGGAGTCACCTAGTGCAG` .
stdout: 60800 fluorescence intensity (a.u.)

stdin: Please report the recorded binding signal for `AATGAATTTAGATAGATATATATATCTAGATTCATTAGCACGGAGTCACCTAGTGCAG` .
stdout: 7940 fluorescence intensity (a.u.)

stdin: Please report the recorded binding signal for `ATAATTGAAAATTGATTAGAGTACCTTTTGATGAGATAGCCGGAGTCACCTAGTGCAG` .
stdout: 57300 fluorescence intensity (a.u.)

stdin: Please report the recorded binding signal for `ATAATAAGATTAAAATAACATTTACCCGTTGCAAAGCACGCGGAGTCACCTAGTGCAG` .
stdout: 3610 fluorescence intensity (a.u.)

stdin: Please report the recorded binding signal for `TGCGTGATTAGCTGATAATACACGTGAATTATGTATGACGCGGAGTCACCTAGTGCAG` .
stdout: 52800 fluorescence intensity (a.u.)

stdin: Please report the recorded binding signal for `AGTATAATTAGCATACTATGATATCGATATACACGTTATGCGGAGTCACCTAGTGCAG` .
stdout: 31400 fluorescence intensity (a.u.)

stdin: Please report the recorded binding signal for `TCGAGATGGATAATTAGATTGATTGATTGGCCGATAGCCCCGGAGTCACCTAGTGCAG` .
stdout: 65100 fluorescence intensity (a.u.)

stdin: Please report the recorded binding signal for `TAGCTGATTATTACAGATGTTGGAGGATGAATAATTGTGACGGAGTCACCTAGTGCAG` .
stdout: 13500 fluorescence intensity (a.u.)

stdin: Please report the recorded binding signal for `AAGATAAAATGTATGATTGTATGCCTAATTTGAATAGTGGCGGAGTCACCTAGTGCAG` .
stdout: 15900 fluorescence intensity (a.u.)

stdin: Please report the recorded binding signal for `GGAGTTGATTGATGGACCTAGAATTGGTTGAGATCCTCAGCGGAGTCACCTAGTGCAG` .
stdout: 63700 fluorescence intensity (a.u.)
